Numbers sourced from ChEMBL document CHEMBL4834489.

test: Clearance in human liver microsomes at 1 uM followed by NADPH addition measured up to 60 mins by LC-MS/MS analysis relative to hepatic blood flow; type: ADME, Microsome; conditions: read-out: CLH
Below: a set of entries, each annotated with reported hepatic extraction ratio at 1 h, 1 µM.

Record excerpt, results attached:
>>> observed_result("Cc1c(C(=O)NCC(C)(C)O)sc2ncn(Cc3nc(C[C@H](O)c4ccc(Cl)cc4)no3)c(=O)c12")
"< 0.23"
>>> observed_result("Cc1c(C(N)=O)sc2ncn(Cc3nc(C[C@H](O)c4ccc(Cl)cc4)no3)c(=O)c12")
0.29
>>> observed_result("Cc1c(C(N)=O)sc2ncn(Cc3nc(C[C@H](O)c4cc5ccccc5o4)no3)c(=O)c12")
"< 0.23"
>>> observed_result("Cc1c(C(N)=O)sc2ncn(Cc3nc(C[C@H](O)c4cc(F)cc(F)c4)no3)c(=O)c12")
"< 0.23"
>>> observed_result("Cc1c(C(N)=O)sc2ncn(Cc3nc(C[C@H](O)c4ccc5c(c4)OCO5)no3)c(=O)c12")
"< 0.23"

// moving on: another record for hepatic extraction ratio at 1 h, 1 µM
Task: So what does the record say about hepatic extraction ratio at 1 h, 1 µM for O=C1NCCc2c1sc1ncn(Cc3nc(C[C@H](O)c4ccc(Cl)cc4)no3)c(=O)c21 ?
Output: < 0.23
